- tgt: DCN1-UBC12 interaction (Homo sapiens (Human), UniProt Q96GG9)
- Sequence (Q96GG9 60-248 limits assumed): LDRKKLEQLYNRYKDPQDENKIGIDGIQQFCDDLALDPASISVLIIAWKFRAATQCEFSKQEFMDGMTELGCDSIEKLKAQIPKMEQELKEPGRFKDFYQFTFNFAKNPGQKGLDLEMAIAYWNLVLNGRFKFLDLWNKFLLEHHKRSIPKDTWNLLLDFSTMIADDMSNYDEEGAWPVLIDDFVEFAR
- method: biochemical
- Type: binding
- condition-context: read-out: TR-FRET IC50
Measured pIC50 by item
Please express pIC50 as -log10 of the molar concentration.

Sample records with pIC50:
CCCC(C)N1CCC(N(Cc2ccccc2)C(=O)Nc2ccc(C(F)(F)F)cc2[NH2+][O-])CC1 (stereo not shown) = 4.88
Cc1cc(C)cc(C(=O)N2CCC(c3nc4ccccc4s3)CC2)c1 = 4.60
CCCCCCc1ccc(NC(=O)N(Cc2ccccc2)C2CCN(C(C)CCC)CC2)cc1 (stereo not shown) = 6.93
CCCC(C)N1CCC(N(Cc2ccccc2)C(=O)Nc2ccc(C)cc2F)CC1 (stereo not shown) = 5.15

## Input Tell me its pIC50 given CCCC(C)N1CCC(N(Cc2ccccc2)C(=O)Nc2cc(F)c(F)cc2F)CC1 (stereo not shown) as the entry.
## Output 5.00

## Input Tell me its pIC50 given CCCC(C)N1CCC(N(Cc2ccccc2)C(=O)Nc2cccc(C(=O)OC)c2)CC1 (stereo not shown) as the entry.
## Output 6.06

## Input Tell me its pIC50 given CCCC(C)N1CCC(N(Cc2ccccc2)C(=O)Nc2ccc(-c3cccc(C(=O)OC)c3)cc2)CC1 (stereo not shown) as the entry.
## Output 5.63

## Input Tell me its pIC50 given CCCC(C)N1CCC(N(Cc2ccccc2)C(=O)Nc2cccc([N+](=O)[O-])c2C)CC1 (stereo not shown) as the entry.
## Output 5.10

----------
- tgt: DCN1-UBC12 interaction (Homo sapiens (Human))
- method: biochemical
- Format: binding
- condition-context: read-out: TR-FRET IC50
outcome-measure: pIC50
Please express pIC50 as -log10 of the molar concentration.

Sample records with pIC50:
CCCC(C)N1CCC(N(Cc2ccccc2)C(=O)Nc2cccc(Cc3ccccc3)c2)CC1 (stereo not shown) [A23] = 6.85
CCCC(C)N1CCC(N(Cc2ccccc2)C(=O)Nc2ccc(CC)cc2)CC1 (stereo not shown) [A56] = 6.50
CCCC(C)N1CCC(N(Cc2ccccc2)C(=O)Nc2cccc(Cl)c2F)CC1 (stereo not shown) [A62] = 6.41

Now for another entry.
## Input Tell me its pIC50 given O=C(Nc1cc(F)cc(C(F)(F)F)c1)N(Cc1ccccc1)C1CCN(CCCc2ccccc2)CC1 [A133] as the entry.
## Output 5.49

----------
- tgt: DCN1-UBC12 interaction (Homo sapiens (Human), UniProt Q96GG9)
- method: biochemical
- Assay type: binding
- condition-context: read-out: TR-FRET IC50
outcome-measure: pIC50
Please express pIC50 as -log10 of the molar concentration.

Sample records with pIC50:
CCCC(C)N1CCC(N(Cc2ccccc2)C(=O)Nc2ccc(Cl)cc2C#N)CC1 (stereo not drawn) = 5.37
CCCC(C)N1CCC(N(Cc2ccccc2)C(=O)Nc2ccc(C3CCCCC3)cc2)CC1 (stereo not drawn) = 5.66
CCCC(C)N1CCC(N(Cc2ccccc2)C(=O)Nc2cccc(O)c2)CC1 (stereo not drawn) = 4.84

Now for another entry.
## Input Tell me its pIC50 given CCCCN1CCC(N(Cc2ccccc2)C(=O)Nc2ccc(F)c(C(F)(F)F)c2)CC1 as the entry.
## Output 6.79

----------
- method: in vivo
- condition-context: male, Testis Concentration, Single Dose (0 hr), time 1.0 hr
outcome-measure: concentration at 1 h (nM)
Response body: numeric value in nM, unit text excluded.

## Input Tell me its concentration at 1 h given CCCCN1CCC(N(Cc2ccccc2)C(=O)Nc2ccc(Cl)c(Cl)c2)CC1 [A7] as the entry.
## Output 2100

----------
- method: in vivo
- condition-context: male, Testis Concentration (μM), 100 mg/kg, Day 3
outcome-measure: concentration at 3 day (µM)
Response body: numeric value in µM, unit text excluded.

## Input Tell me its concentration at 3 day given CCCCN1CCC(N(Cc2ccccc2)C(=O)Nc2ccc(Cl)c(Cl)c2)CC1 as the entry.
## Output 25.9

----------
- method: physchem
- condition-context: aqueous buffer, kinetic from dmso stock
outcome-measure: solubility kinetic (µM)
Response body: numeric value in µM, unit text excluded.

O=C(Nc1cccc(C(F)(F)F)c1)N(Cc1ccccc1)C1CCN(Cc2cccnc2)CC1 [compound 23] = 30
O=C(Nc1cccc(C(F)(F)F)c1)N(Cc1ccccc1)C1CCN(Cc2ccc3c(c2)OCCO3)CC1 [compound 27] = 1
O=C(Nc1cccc(C(F)(F)F)c1)N(Cc1ccccc1)C1CCN(Cc2ccc(F)cc2)CC1 [compound 24] = 0.9

Now for another entry.
## Input Tell me its solubility kinetic given CCOc1cc(CN2CCC(N(Cc3ccccc3)C(=O)Nc3cccc(C(F)(F)F)c3)CC2)cc(Cl)c1O [compound 25] as the entry.
## Output 0.4

----------
- tgt: DCN1-UBC12 interaction (Homo sapiens (Human), UniProt Q96GG9)
- method: biochemical
- Assay type: binding
- condition-context: Table 6, commercial compounds; read-out: TR-FRET IC50
outcome-measure: pIC50
Please express pIC50 as -log10 of the molar concentration.

CCN(CC)CCN(CC)C(=O)c1cnn(-c2nccc(-c3cccs3)n2)c1C = 5.11
CCOC(=O)N1CCN(C(=O)c2cnn(-c3ncc(C)c(-c4cccs4)n3)c2C)CC1 = 4.55
COCCN1CCN(C(=O)c2cnn(-c3nccc(-c4cc(C)sc4C)n3)c2COC)CC1 = 4.64
CCN(CC)CCN(CC)C(=O)c1cnn(-c2nccc(-c3cccs3)n2)c1C(C)C = 4.76

## Input Tell me its pIC50 given CCN(CC)CCN(CC)C(=O)c1cnn(-c2nccc(-c3cccs3)n2)c1COC as the entry.
## Output 4.26

----------
- tgt: DCN1-UBC12 interaction (Homo sapiens (Human))
- method: biochemical
- Assay type: binding
- condition-context: Table 4, commercial compounds; read-out: TR-FRET IC50
pIC50: −log10 of the molar value.
Measured pIC50 by item

Sample records with pIC50:
CSc1cccc(NC(=O)C2CCN(C(=O)c3cnn(-c4ccccc4)c3-n3cccc3)CC2)c1 [C9] = < 4.12
Cc1cc(NC(=O)C2CCN(C(=O)c3ccco3)CC2)ccc1Br [C38] = < 4.17
CC(=O)Nc1cccc(NC(=O)C2CCN(C(=O)c3ccco3)CC2)c1 [C39] = < 4.17

## Input Tell me its pIC50 given O=C(Nc1ccc(Cl)c(Cl)c1)C1CCN(C(=O)c2ccco2)CC1 [C40] as the entry.
## Output < 4.17

## Input Tell me its pIC50 given CCc1ccccc1NC(=O)C1CCN(C(=O)c2ccc(F)cc2)CC1 [C67] as the entry.
## Output < 4.12

----------
Measured IC50 by item
- tgt: DCN1-UBC12 interaction (Homo sapiens (Human), UniProt Q96GG9)
- method: biochemical
- Assay type: binding
- condition-context: Table 4, commercial compounds; read-out: TR-FRET IC50

CCc1cccc(NC(=O)C2CCN(C(C)=O)CC2)c1 = > 67.6 µM
O=C(Nc1cccc(C(F)(F)F)c1)C1CCN(C(=O)/C=C/c2ccccc2)CC1 = > 67.6 µM
O=C(Nc1cccc(C(F)(F)F)c1)C1CCN(C(=O)c2ccco2)CC1 = > 75.7 µM
O=C(Nc1ccc(C(F)(F)F)cc1)N1CCN(C/C=C/c2ccccc2)CC1 = > 66.3 µM
CSc1cccc(NC(=O)C2CCN(C(=O)c3ccc(F)cc3)CC2)c1 = 26.3 µM

## Input Tell me its IC50 given CCc1cccc(NC(=O)C2CCN(C(=O)N3CC(CC)Oc4ccccc43)CC2)c1 (stereo not drawn) as the entry.
## Output > 67.6 µM

## Input Tell me its IC50 given O=C(Nc1cccc([N+](=O)[O-])c1)C1CCN(C(=O)c2cccc3ccccc23)CC1 as the entry.
## Output > 67.6 µM

## Input Tell me its IC50 given COc1ccc(NC(=O)C2CCN(C(=O)c3ccccc3C)CC2)c(OC)c1 as the entry.
## Output > 67.6 µM

## Input Tell me its IC50 given O=C(Nc1ccc(Cl)c(C(F)(F)F)c1)C1CCN(C(=O)c2ccccc2Cl)CC1 as the entry.
## Output > 46 µM

----------
- tgt: DCN1-UBC12 interaction (Homo sapiens (Human), UniProt Q96GG9)
- method: biochemical
- Assay type: binding
- condition-context: Table 6, commercial compounds; read-out: TR-FRET IC50
Measured pIC50 by item
Please express pIC50 as -log10 of the molar concentration.

Sample records with pIC50:
CCN(CC)CCN(CC)C(=O)c1cnn(-c2ncc3c(n2)-c2ccccc2CC3)c1C1CC1 = 4.64
CCN(CC)CCNC(=O)c1cnn(-c2nccc(-c3cccs3)n2)c1C(C)C = 4.38
CCN(CC)CCN(CC)C(=O)c1cnn(-c2ncc(C)c(-c3cccs3)n2)c1COC = 4.48
CCN1CCN(C(=O)c2cnn(-c3nccc(-c4cccs4)n3)c2C)CC1 = 4.24
CCN1CCN(C(=O)c2cnn(-c3ncc(C)c(-c4cccs4)n3)c2COC)CC1 = 4.32

## Input State, for DCN1-UBC12 interaction (Homo sapiens (Human), UniProt Q96GG9), measured pIC50 of the compound listed here: CCN(CC)CCN(C)C(=O)c1cnn(-c2nccc(-c3cccs3)n2)c1C(C)C
## Output 4.49

## Input State, for DCN1-UBC12 interaction (Homo sapiens (Human), UniProt Q96GG9), measured pIC50 of the compound listed here: CCN(CC)CCN(CC)C(=O)c1cnn(-c2ncc(C)c(-c3cccs3)n2)c1C1CC1
## Output 4.42

## Input State, for DCN1-UBC12 interaction (Homo sapiens (Human), UniProt Q96GG9), measured pIC50 of the compound listed here: Cc1c(C(=O)N(C)CC(C)C)cnn1-c1nccc(-c2cccs2)n1
## Output 4.73

Provenance of the data: patent US11116757B2
